Assay: Stability in human liver microsomes assessed as compound remaining measured immediately in absence of NADPH by LC/MS/MS analysis
Type: ADME, Microsome
Details: read-out: Stability
Below is a list of entries, each paired with its recorded remaining at 0 min value.
Your answer is read as %, so omit the unit and give the number.

C/C(=N\NC(=N)N)c1cnn(-c2ccc(C#CC3CCCC3)cc2)c1C; 100

Query compound follows.
Quick note, remaining at 0 min for C/C(=N\NC1=NCCN1)c1cnn(-c2ccc(C#CC3CCCC3)cc2)c1C landed at 100

----------
Property: remaining at 0.5 h; scope: individual compounds
Test: Stability in human liver microsomes assessed as compound remaining incubated for 30 mins in presence of NADPH by LC/MS/MS analysis
Type: ADME, Microsome
Settings: read-out: Stability
Entry rule: numbers only, all in %.

C/C(=N\NC1=NCCN1)c1cnn(-c2ccc(C#CC3CCCC3)cc2)c1C; 92

// below: remaining at 0.5 h requested for another compound
# remaining at 0.5 h of C/C(=N\NC(=N)N)c1cnn(-c2ccc(C#CC3CCCC3)cc2)c1C = 92
